test system: Su-DHL2 cells; test: Growth inhibition, CellTiter-Glo, 5 days; format: cell-based; conditions: Homo sapiens, SU-DHL-2, 120 h; ABC DLBCL, A20 mutation; 5 days treatment; read-out: growth inhibitory IC50, Su-DHL2
We begin with a simple list: items and their reported pIC50.
Note: pIC50 values are expressed as the negative base-10 logarithm of concentration in M.

Report pIC50 for COCCOCCOc1cccc2c(C3=C(c4c(Cl)ccc5ccc(CN(C)C)cc45)C(=O)NC3=O)c[nH]c12 [Compound B]
4.82

Next:
Tell me measured pIC50 for C[C@@H]1CC(Nc2nccc(-c3c[nH]c4c(F)cccc34)n2)C[C@@H](C)N1 (some centres unmarked) [Compound A] please.
4.82

For COc1c(Cl)cc2c([nH]c3cnccc32)c1NC(=O)c1cccnc1C [MLN120B] , write its pIC50.
5.00

====

system: HBL1 cells; assay: Growth inhibition, CellTiter-Glo, 5 days; type: cell-based; conditions: HBL1, 120 h; ABC DLBCL, CD79B mutation; 5 days treatment; read-out: growth inhibitory IC50, HBL1
Measured pIC50 accompanies every entry in the list below.
Entry type: numeric. Quantity: pIC50, the -log10 of concentration in molar units.

Give HBL1 cells pIC50 for the following compound: COCCOCCOc1cccc2c(C3=C(c4c(Cl)ccc5ccc(CN(C)C)cc45)C(=O)NC3=O)c[nH]c12 [Compound B]
6.30

Provide the reported pIC50 (system: HBL1 cells) for O=C1NC(=O)C(c2c[nH]c3ccccc23)=C1c1nc(N2CCNCC2)nc2ccccc12 [Compound D]
6.70

GET pIC50 | system: HBL1 cells | item: COc1c(Cl)cc2c([nH]c3cnccc32)c1NC(=O)c1cccnc1C [MLN120B]
5.00

Report measured pIC50 on HBL1 cells; entry: CN1CCN(c2nc(C3=C(c4c[nH]c5ccccc45)C(=O)NC3=O)c3ccccc3n2)CC1 [AEB071]
6.30

Here is another compound to look at.
State pIC50 (HBL1 cells) of C[C@@H]1CC(Nc2nccc(-c3c[nH]c4c(F)cccc34)n2)C[C@@H](C)N1 (some centres unmarked) [Compound A] .
5.60

====

The entries below come with measured pIC50 values attached.
tested on: TMD8 cells; test: Growth inhibition, CellTiter-Glo, 5 days; format: cell-based; details: Homo sapiens, TMD8, 120 h; ABC DLBCL, CD79B mutation; 5 days treatment; read-out: growth inhibitory IC50, TMD8
The read-out pIC50 is expressed as -log10 of concentration in moles per litre.

Here is how some compounds turned out for pIC50.
Read off the recorded pIC50 for COc1c(Cl)cc2c([nH]c3cnccc32)c1NC(=O)c1cccnc1C [MLN120B]
5.00

Respond only with pIC50 recorded for COCCOCCOc1cccc2c(C3=C(c4c(Cl)ccc5ccc(CN(C)C)cc45)C(=O)NC3=O)c[nH]c12
6.70

Please give the documented pIC50 of O=C1NC(=O)C(c2c[nH]c3ccccc23)=C1c1nc(N2CCNCC2)nc2ccccc12
6.70

Tell us which pIC50 value is on record for CN1CCN(c2nc(C3=C(c4c[nH]c5ccccc45)C(=O)NC3=O)c3ccccc3n2)CC1
6.70

Then there is this compound:
Give the reported value of pIC50 for this record: C[C@@H]1CC(Nc2nccc(-c3c[nH]c4c(F)cccc34)n2)C[C@@H](C)N1 (some centres unmarked)
6.70
